Tested on: 873145-292-R-J1-PDC complex spheroid viability;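 note: luminescence signal used as surrogate for viable cell content; spheroids exposed to compounds for 7 days before viability readout; 100% = DMSO vehicle control viability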
PROTOCOL_DESCRIPTION: Anticancer human tumor 873145-292-R-J1-PDC patient-derived renal clear cell carcinoma cell line growth inhibition [POLQ]
STATED_CONDITIONS: second compound 10 µM; first compound 0.316 µM; hits give low values
Assign viability, T/C to each entry below.
Please respond with the number in % and leave the unit unwritten.

# input Field request: viability, T/C | item: CC1COCCN1c1cc(-c2ccnn2C)c2ccnc(-c3ccn[nH]3)c2n1 (stereo not drawn) + Nc1ccc(C#CCN(C(=O)Cc2ncc(C(F)(F)F)cc2C(F)(F)F)c2ccc(F)cc2)nn1
# output 80

# input Repeat with CNCc1ccc(-c2[nH]c3cc(F)cc4c3c2CCNC4=O)cc1 + Nc1ccc(C#CCN(C(=O)Cc2ncc(C(F)(F)F)cc2C(F)(F)F)c2ccc(F)cc2)nn1
# output 103

# input Then O=C(c1cc(Cc2n[nH]c(=O)c3ccccc23)ccc1F)N1CCN(C(=O)C2CC2)CC1 + Nc1ccc(C#CCN(C(=O)Cc2ncc(C(F)(F)F)cc2C(F)(F)F)c2ccc(F)cc2)nn1 ?
# output 106

Ref: PubChem BioAssay AID1963834
